Where do the numbers come from? From patent US20250361288A1.

Molecular target: T1, human HVEM extracellular domain fused with an Fc fragment at the C-terminus (human, UniProt Q92956 39-202)
T1 construct: extracellular domain; Bought; also called hHVEM; not shown: Fc fragment at the C-terminus
T1 sequence (looked up): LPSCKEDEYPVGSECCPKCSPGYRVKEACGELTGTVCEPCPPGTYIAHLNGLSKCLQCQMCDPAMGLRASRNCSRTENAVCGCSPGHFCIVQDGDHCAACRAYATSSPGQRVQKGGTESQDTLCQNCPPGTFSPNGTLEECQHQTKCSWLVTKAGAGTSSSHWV
Test: ELISA on coated target-Fc, Table 5-1
Parameter measured: binding result

INSERT INTO measurements (binder, result) VALUES
  ('LIGHT-7 (ligand, Printed mutations: P155R, L220Q, R232H; Soluble protein carries an N-terminal His tag) DGPAGSWEQLIQERRSHEVNPAAHLTGANSSLTGSGGPLLWETQLGLAFLRGLSYHDGALVVTKAGYYYIYSKVQLGGVGCRLGLASTITHGLYKRTPRYPEELELLVSQQSPCGRATSSSRVWWDSSFLGGVVHLEAGEKVVVRVQDERLVRLRDGTHSYFGAFMV', 'no binding'),
  ('LIGHT-3 (ligand, Printed mutations: G150A, L220S; Soluble protein carries an N-terminal His tag) DGPAGSWEQLIQERRSHEVNPAAHLTGANSSLTGSGGPLLWETQLGLAFLRGLSYHDGALVVTKAGYYYIYSKVQLAGVGCPLGLASTITHGLYKRTPRYPEELELLVSQQSPCGRATSSSRVWWDSSFLGGVVHLEAGEKVVVRVSDERLVRLRDGTRSYFGAFMV', 'no binding');
